Values compiled from ChEMBL document CHEMBL5376026.

# assay-explanation: Cytotoxicity against human LO2 cells assessed as reduction in cell viability incubated for 48 hrs by MTT assay
# Format: toxicity, cell-based, L02
Mark each entry Satisfied if its IC50 at 48 h sits below 30 µM, and Not satisfied for all others.

molecule	assigned-label
CC(C)c1ccc2c(c1)CC[C@H]1[C@](C)(C(=O)OCc3cn(CC4CN(c5ccc(N6CCOCC6)cc5)C(=O)O4)nn3)CCC[C@]21C (some centres not stated)	Satisfied
CC(C)c1ccc2c(c1)CC[C@H]1[C@](C)(C(=O)OCc3cn(CC4CN(c5ccccc5Br)C(=O)O4)nn3)CCC[C@]21C (some centres not stated)	Satisfied
CC(C)c1ccc2c(c1)CC[C@H]1[C@](C)(C(=O)OCc3cn(CC4CN(c5ccc(Br)cc5)C(=O)O4)nn3)CCC[C@]21C (some centres not stated)	Not satisfied
CC(C)c1ccc2c(c1)CC[C@H]1[C@](C)(C(=O)OCc3cn(CC4CN(c5ccccc5Cl)C(=O)O4)nn3)CCC[C@]21C (some centres not stated)	Satisfied
Cc1ccc(N2CC(Cn3cc(COC(=O)[C@]4(C)CCC[C@]5(C)c6ccc(C(C)C)cc6CC[C@@H]45)nn3)OC2=O)cc1 (some centres not stated)	Not satisfied
CC(C)c1ccc2c(c1)CC[C@H]1[C@](C)(C(=O)OCc3cn(CC4CN(c5cccc(Cl)c5)C(=O)O4)nn3)CCC[C@]21C (some centres not stated)	Satisfied
CC(C)c1ccc2c(c1)CC[C@H]1[C@](C)(C(=O)OCc3cn(CC4CN(c5ccc(F)c(F)c5)C(=O)O4)nn3)CCC[C@]21C (some centres not stated)	Satisfied
CC(C)c1ccc2c(c1)CC[C@H]1[C@](C)(C(=O)O)CCC[C@]21C [DEHYDROABIETIC ACID]	Not satisfied
COc1ccc(N2CC(Cn3cc(COC(=O)[C@]4(C)CCC[C@]5(C)c6ccc(C(C)C)cc6CC[C@@H]45)nn3)OC2=O)cc1 (some centres not stated)	Not satisfied
COc1cc(N2CC(Cn3cc(COC(=O)[C@]4(C)CCC[C@]5(C)c6ccc(C(C)C)cc6CC[C@@H]45)nn3)OC2=O)cc(OC)c1OC (some centres not stated)	Satisfied
CC(C)c1ccc2c(c1)CC[C@H]1[C@](C)(C(=O)OCc3cn(CC4CN(c5ccc(F)cc5)C(=O)O4)nn3)CCC[C@]21C (some centres not stated)	Not satisfied

###

Here, each record is paired with measured IC50 data.
# Test system: HepG2
# assay-explanation: Anticancer activity against human HepG2 cells assessed as inhibition of cell growth incubated for 48 hrs by MTT assay
# Format: functional, cell-based
# details: HepG2, 48 h
property-name: IC50 (µM)

molecule	system-tested	reported-measurement
CC(C)c1ccc2c(c1)CC[C@H]1[C@](C)(C(=O)OCc3cn(CC4CN(c5cccc(F)c5)C(=O)O4)nn3)CCC[C@]21C (some centres undefined)	HepG2	24.7
Cc1cccc(N2CC(Cn3cc(COC(=O)[C@]4(C)CCC[C@]5(C)c6ccc(C(C)C)cc6CC[C@@H]45)nn3)OC2=O)c1 (some centres undefined)	HepG2	23.5
CC(C)c1ccc2c(c1)CC[C@H]1[C@](C)(C(=O)OCc3cn(CC4CN(c5cccc(Cl)c5)C(=O)O4)nn3)CCC[C@]21C (some centres undefined)	HepG2	47.9
CC(C)c1ccc2c(c1)CC[C@H]1[C@](C)(C(=O)OCc3cn(CC4CN(c5ccc(Br)cc5)C(=O)O4)nn3)CCC[C@]21C (some centres undefined)	HepG2	11.7

###

Recorded IC50 by entry
# Tested on: HepG2
# assay-explanation: Anticancer activity against human HepG2 cells assessed as inhibition of cell growth incubated for 48 hrs by MTT assay
# Format: functional, cell-based
# details: HepG2, 48 h
property-name: IC50 (µM)

molecule	property-name	unit-spec	reported-measurement
CC(C)c1ccc2c(c1)CC[C@H]1[C@](C)(C(=O)OCc3cn(CC4CN(c5cccc([N+](=O)[O-])c5)C(=O)O4)nn3)CCC[C@]21C (stereo partly drawn)	IC50	µM	13
COc1ccc(N2CC(Cn3cc(COC(=O)[C@]4(C)CCC[C@]5(C)c6ccc(C(C)C)cc6CC[C@@H]45)nn3)OC2=O)cc1 (stereo partly drawn)	IC50	µM	31
CC(C)c1ccc2c(c1)CC[C@H]1[C@](C)(C(=O)OCc3cn(CC4CN(c5ccc(F)c(F)c5)C(=O)O4)nn3)CCC[C@]21C (stereo partly drawn)	IC50	µM	32
